Tested on: Candida parapsilosis
Experiment: Antifungal activity against Candida parapsilosis ATCC 22019 after 24 hrs by serial dilution method
Assay type: functional
Settings: Lodderomyces parapsilosis, ATCC 22019, 24 h
VALUE TYPE: MIC80 (µg/mL)
Write the value in µg/mL as a bare number.

See these solved cases before continuing.
>  <MOLECULE>
O=c1n(-c2ccc(C(F)(F)C(O)(Cn3cnnn3)c3ccc(F)cc3F)nc2)cnn1Cc1ccccn1 (stereo not drawn)

>  <REPORTED MEASUREMENT>
16

$$$$
>  <MOLECULE>
CC1CCC(n2ncn(-c3ccc(C(F)(F)C(O)(Cn4cnnn4)c4ccc(F)cc4F)nc3)c2=O)CC1 (stereo not drawn)

>  <REPORTED MEASUREMENT>
1

$$$$
>  <MOLECULE>
COc1ccc(Cn2ncn(-c3ccc(C(F)(F)C(O)(Cn4cnnn4)c4ccc(F)cc4F)nc3)c2=O)cc1 (stereo not drawn)

>  <REPORTED MEASUREMENT>
0.25

$$$$
>  <MOLECULE>
CCn1ncn(-c2ccc(C(F)(F)C(O)(Cn3cnnn3)c3ccc(F)cc3F)nc2)c1=O (stereo not drawn)

>  <REPORTED MEASUREMENT>
2

$$$$
>  <MOLECULE>
O=c1n(-c2ccc(C(F)(F)C(O)(Cn3cnnn3)c3ccc(F)cc3F)nc2)cnn1CCC1CCCCC1 (stereo not drawn)

>  <REPORTED MEASUREMENT>
0.5

$$$$

Incoming: Item under review: O=c1n(-c2ccc(C(F)(F)C(O)(Cn3cnnn3)c3ccc(F)cc3F)nc2)cnn1Cc1ccc(OC(F)(F)F)cc1 (stereo not drawn) . Reported MIC80?
Outgoing: 0.5

Incoming: Item under review: OC(Cn1cncn1)(Cn1cncn1)c1ccc(F)cc1F [FLUCONAZOLE] . Reported MIC80?
Outgoing: 1

Incoming: Item under review: O=c1n(-c2ccc(C(F)(F)C(O)(Cn3cnnn3)c3ccc(F)cc3F)nc2)cnn1Cc1ccc(C(F)(F)F)cc1 (stereo not drawn) . Reported MIC80?
Outgoing: 0.5

* * *

Biological target: Cytochrome P450 2D6 (Homo sapiens, UniProt P10635)
Sequence (P10635 whole entry): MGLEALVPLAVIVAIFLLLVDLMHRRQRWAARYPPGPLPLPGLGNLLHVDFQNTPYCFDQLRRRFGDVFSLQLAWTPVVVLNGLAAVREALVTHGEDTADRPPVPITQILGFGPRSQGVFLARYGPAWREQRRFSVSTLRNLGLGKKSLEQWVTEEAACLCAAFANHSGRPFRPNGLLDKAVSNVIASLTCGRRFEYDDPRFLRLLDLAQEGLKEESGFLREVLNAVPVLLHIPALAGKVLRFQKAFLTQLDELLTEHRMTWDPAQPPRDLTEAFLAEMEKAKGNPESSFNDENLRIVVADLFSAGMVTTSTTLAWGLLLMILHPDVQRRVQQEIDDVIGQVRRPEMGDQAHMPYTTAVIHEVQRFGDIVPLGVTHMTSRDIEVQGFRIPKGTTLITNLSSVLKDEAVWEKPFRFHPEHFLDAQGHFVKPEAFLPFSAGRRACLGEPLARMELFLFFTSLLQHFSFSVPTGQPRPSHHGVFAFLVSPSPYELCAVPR
VALUE TYPE: pIC50
Would you please state pIC50, meaning minus log10 of the concentration in mol/L, as a bare number?

Incoming: Tell me reported pIC50 for O=c1n(-c2ccc(C(F)(F)C(O)(Cn3cnnn3)c3ccc(F)cc3F)nc2)cnn1C1CCCCC1 (stereo unspecified) , tested with Cytochrome P450 2D6 (Homo sapiens, UniProt P10635).
Outgoing: 4.68

* * *

Test system: Candida parapsilosis
Test: Antifungal activity against Candida parapsilosis ATCC 22019 after 24 hrs by serial dilution method
Assay type: functional
Settings: Lodderomyces parapsilosis, ATCC 22019, 24 h
Each entry below lists one item and its recorded MIC80 value.
Write the value in µg/mL as a bare number.

See these solved cases before continuing.
>  <MOLECULE>
COC1CCC(n2ncn(-c3ccc(C(F)(F)C(O)(Cn4cnnn4)c4ccc(F)cc4F)nc3)c2=O)CC1 (configuration not stated)

>  <UNITS OF MEASURE>
µg/mL

>  <MIC80>
1

$$$$
>  <MOLECULE>
O=c1n(-c2ccc(C(F)(F)C(O)(Cn3cnnn3)c3ccc(F)cc3F)nc2)cnn1C1CCCCCCC1 (configuration not stated)

>  <UNITS OF MEASURE>
µg/mL

>  <MIC80>
2

$$$$

Read the next record carefully.
Incoming: Item under review: O=c1n(-c2ccc(C(F)(F)C(O)(Cn3cnnn3)c3ccc(F)cc3F)nc2)cnn1CC1CC1 (configuration not stated) . Reported MIC80?
Outgoing: 0.25

* * *

Test system: Candida albicans
Assay: Antifungal activity against Candida albicans Y0109 after 24 hrs by serial dilution method
Assay type: functional
Settings: Y0109, 24 h
VALUE TYPE: MIC80 (µg/mL)
Write the value in µg/mL as a bare number.

See these solved cases before continuing.
>  <COMPOUND>
O=c1n(-c2ccc(C(F)(F)C(O)(Cn3cnnn3)c3ccc(F)cc3F)nc2)cnn1Cc1ccc(C(F)(F)F)cc1 (stereo not drawn)

>  <MIC80, µg/mL>
1

$$$$
>  <COMPOUND>
COc1ccc(Cn2ncn(-c3ccc(C(F)(F)C(O)(Cn4cnnn4)c4ccc(F)cc4F)nc3)c2=O)cc1 (stereo not drawn)

>  <MIC80, µg/mL>
0.5

$$$$

Incoming: Tell me reported MIC80 for Cc1ccc(Cn2ncn(-c3ccc(C(F)(F)C(O)(Cn4cnnn4)c4ccc(F)cc4F)nc3)c2=O)cc1 (stereo not drawn) , tested with Candida albicans.
Outgoing: 1

Incoming: Tell me reported MIC80 for O=c1n(-c2ccc(C(F)(F)C(O)(Cn3cnnn3)c3ccc(F)cc3F)nc2)cnn1C1CCC(F)(F)CC1 (stereo not drawn) , tested with Candida albicans.
Outgoing: 0.5

Incoming: Tell me reported MIC80 for O=c1n(-c2ccc(C(F)(F)C(O)(Cn3cnnn3)c3ccc(F)cc3F)nc2)cnn1Cc1ccc(F)cc1 (stereo not drawn) , tested with Candida albicans.
Outgoing: 1

Incoming: Tell me reported MIC80 for CCC(C)n1ncn(-c2ccc(C(F)(F)C(O)(Cn3cnnn3)c3ccc(F)cc3F)nc2)c1=O (stereo not drawn) , tested with Candida albicans.
Outgoing: 1

Incoming: Tell me reported MIC80 for CC1(C)CCC(n2ncn(-c3ccc(C(F)(F)C(O)(Cn4cnnn4)c4ccc(F)cc4F)nc3)c2=O)CC1 (stereo not drawn) , tested with Candida albicans.
Outgoing: 4

* * *

Tested on: Candida albicans
Assay: Antifungal activity against Candida albicans Y0109 after 24 hrs by serial dilution method
Assay type: functional
Settings: Y0109, 24 h
Each entry below lists one item and its recorded log10 of MIC80 value.
Reminder: these figures are log10 of reported MIC80, in µg/mL before transformation.

>  <COMPOUND>
O=c1n(-c2ccc(C(F)(F)C(O)(Cn3cnnn3)c3ccc(F)cc3F)nc2)cnn1C1CCCCCCC1 (centres undefined)

>  <log10 of MIC80>
0.00

$$$$
>  <COMPOUND>
OC(Cn1cnnn1)(c1ccc(F)cc1F)C(F)(F)c1ccc(-c2ccc(OCC(F)(F)F)cc2)cn1 (racemic)

>  <log10 of MIC80>
0.00

$$$$
>  <COMPOUND>
O=c1n(-c2ccc(C(F)(F)C(O)(Cn3cnnn3)c3ccc(F)cc3F)nc2)cnn1Cc1ccc(Cl)cc1 (centres undefined)

>  <log10 of MIC80>
0.00

$$$$

Incoming: Item under review: O=c1n(-c2ccc(C(F)(F)C(O)(Cn3cnnn3)c3ccc(F)cc3F)nc2)cnn1C1CCC1 (centres undefined) . Reported log10 of MIC80?
Outgoing: -0.60

Incoming: Item under review: CC(C)n1ncn(-c2ccc(C(F)(F)C(O)(Cn3cnnn3)c3ccc(F)cc3F)nc2)c1=O (centres undefined) . Reported log10 of MIC80?
Outgoing: 0.00

Incoming: Item under review: O=c1n(-c2ccc(C(F)(F)C(O)(Cn3cnnn3)c3ccc(F)cc3F)nc2)cnn1CCC1CCCCC1 (centres undefined) . Reported log10 of MIC80?
Outgoing: -0.30

Incoming: Item under review: COCCOc1ccc(Cn2ncn(-c3ccc(C(F)(F)C(O)(Cn4cnnn4)c4ccc(F)cc4F)nc3)c2=O)cc1 (centres undefined) . Reported log10 of MIC80?
Outgoing: 0.00

Incoming: Item under review: CCn1ncn(-c2ccc(C(F)(F)C(O)(Cn3cnnn3)c3ccc(F)cc3F)nc2)c1=O (centres undefined) . Reported log10 of MIC80?
Outgoing: 0.30

Incoming: Item under review: O=C1CCCCC1n1ncn(-c2ccc(C(F)(F)C(O)(Cn3cnnn3)c3ccc(F)cc3F)nc2)c1=O (centres undefined) . Reported log10 of MIC80?
Outgoing: 0.60

Incoming: Item under review: CC1CCC(n2ncn(-c3ccc(C(F)(F)C(O)(Cn4cnnn4)c4ccc(F)cc4F)nc3)c2=O)CC1 (centres undefined) . Reported log10 of MIC80?
Outgoing: 0.00

Incoming: Item under review: O=c1n(-c2ccc(C(F)(F)C(O)(Cn3cnnn3)c3ccc(F)cc3F)nc2)cnn1C1CCCC1 (centres undefined) . Reported log10 of MIC80?
Outgoing: -0.60

Incoming: Item under review: O=c1n(-c2ccc(C(F)(F)C(O)(Cn3cnnn3)c3ccc(F)cc3F)nc2)cnn1C1CCCCCC1 (centres undefined) . Reported log10 of MIC80?
Outgoing: -0.30

Incoming: Item under review: N#Cc1ccc(Cn2ncn(-c3ccc(C(F)(F)C(O)(Cn4cnnn4)c4ccc(F)cc4F)nc3)c2=O)cc1 (centres undefined) . Reported log10 of MIC80?
Outgoing: 0.00

Incoming: Item under review: O=c1n(-c2ccc(C(F)(F)C(O)(Cn3cnnn3)c3ccc(F)cc3F)nc2)cnn1Cc1ccccc1 (centres undefined) . Reported log10 of MIC80?
Outgoing: 0.00

Incoming: Item under review: COC1CCC(n2ncn(-c3ccc(C(F)(F)C(O)(Cn4cnnn4)c4ccc(F)cc4F)nc3)c2=O)CC1 (centres undefined) . Reported log10 of MIC80?
Outgoing: -0.30

Incoming: Item under review: CCC(CC)n1ncn(-c2ccc(C(F)(F)C(O)(Cn3cnnn3)c3ccc(F)cc3F)nc2)c1=O (centres undefined) . Reported log10 of MIC80?
Outgoing: 0.30

Incoming: Item under review: CC(C)C1CCC(n2ncn(-c3ccc(C(F)(F)C(O)(Cn4cnnn4)c4ccc(F)cc4F)nc3)c2=O)CC1 (centres undefined) . Reported log10 of MIC80?
Outgoing: 0.90

Incoming: Item under review: CC(C)(C)Cn1ncn(-c2ccc(C(F)(F)C(O)(Cn3cnnn3)c3ccc(F)cc3F)nc2)c1=O (centres undefined) . Reported log10 of MIC80?
Outgoing: -0.60

Incoming: Item under review: O=c1n(-c2ccc(C(F)(F)C(O)(Cn3cnnn3)c3ccc(F)cc3F)nc2)cnn1C1CC=CCC1 (centres undefined) . Reported log10 of MIC80?
Outgoing: -0.30

Incoming: Item under review: CSc1ccc(Cn2ncn(-c3ccc(C(F)(F)C(O)(Cn4cnnn4)c4ccc(F)cc4F)nc3)c2=O)cc1 (centres undefined) . Reported log10 of MIC80?
Outgoing: 0.60

Incoming: Item under review: O=c1n(-c2ccc(C(F)(F)C(O)(Cn3cnnn3)c3ccc(F)cc3F)nc2)cnn1C1CCCCC1 (centres undefined) . Reported log10 of MIC80?
Outgoing: -0.60
